- assayContext: Liquid; Distillation
assayEndpoint: Normal boiling temperature (°C)

Here is how some compounds turned out for Normal boiling temperature.
Normal boiling temperature for CCOC(=O)CCCCC(=O)OCC [diethyl hexanedioate] is 245.2

Normal boiling temperature for CCOC(=O)CCC(=O)OCC [diethyl butanedioate] is 217.7

I = CCOC(=O)CCCC(=O)OCC [diethyl glutarate]
II = CCC(=O)O [propanoic acid]
INPUT: Could you determine which record has the numerically smaller Normal boiling temperature? Candidates: I and II Provide the label of your selected option as the answer.
OUTPUT: II
